solubility at 7 days overview
- PROCEDURE_TEXT: Solubility in organic solvents via HPTLC (after 24 hours and 7 days)
- Type: physicochemical
- PARTICULARS: organic solvent or mixture, thermodynamic from solid; cyclohexylbenzene, 7 days storage at room temperature; read-out: Solubility after 7 days, Cyclohexylbenzene
ATTRIBUTE_MEASURED: solubility at 7 days

MOLECULE	ATTRIBUTE_MEASURED	RESULT
c1ccc(-c2cccc(-c3cc(-c4cccc(-c5ccccc5)c4)cc(C4(c5cc(-c6cccc(-c7ccccc7)c6)cc(-c6cccc(-c7ccccc7)c6)c5)c5ccccc5-c5ccc(-c6ccccc6)cc54)c3)c2)cc1 [Compound B-3, reference compound]	solubility at 7 days	> 50 mg/mL
c1ccc(-c2cc(-c3ccccc3)cc(-c3cccc(-c4cccc(C5(c6cccc(-c7cccc(-c8cc(-c9ccccc9)cc(-c9ccccc9)c8)c7)c6)c6ccccc6-c6ccccc65)c4)c3)c2)cc1 [Compound B-2, reference compound]	solubility at 7 days	< 1 mg/mL
c1ccc(-c2cc(-c3ccccc3)cc(-c3cccc(-c4cccc(C5(c6cccc(-c7cccc(-c8cc(-c9ccccc9)cc(-c9ccccc9)c8)c7)c6)c6ccccc6-c6c(-c7cccc(-c8ccccc8)c7)cccc65)c4)c3)c2)cc1	solubility at 7 days	< 50 mg/mL
c1ccc(-c2cccc(-c3cc(-c4cccc(-c5ccccc5)c4)cc(C4(c5cc(-c6cccc(-c7ccccc7)c6)cc(-c6cccc(-c7ccccc7)c6)c5)c5ccccc5-c5ccccc54)c3)c2)cc1 [Compound B-1, reference compound]	solubility at 7 days	< 20 mg/mL
Cc1cc(C)c(-c2cccc3c2-c2ccccc2C3(c2cc(-c3cc(-c4ccc(C(C)(C)C)cc4)cc(-c4ccc(C(C)(C)C)cc4)c3)cc(-c3cc(-c4ccc(C(C)(C)C)cc4)cc(-c4ccc(C(C)(C)C)cc4)c3)c2)c2cc(-c3cc(-c4ccc(C(C)(C)C)cc4)cc(-c4ccc(C(C)(C)C)cc4)c3)cc(-c3cc(-c4ccc(C(C)(C)C)cc4)cc(-c4ccc(C(C)(C)C)cc4)c3)c2)c(C)c1	solubility at 7 days	> 50 mg/mL

###

- PROCEDURE_TEXT: Solubility in organic solvents via HPTLC (after 24 hours and 7 days)
- Type: physicochemical
- PARTICULARS: 25 °C, organic solvent or mixture, thermodynamic from solid; mesitylene, 24 hours, room temperature; read-out: Solubility after 24 hours, Mesitylene

COMPOUND	solubility at 24 h
c1ccc(-c2cccc(-c3cc(-c4cccc(-c5ccccc5)c4)cc(C4(c5cc(-c6cccc(-c7ccccc7)c6)cc(-c6cccc(-c7ccccc7)c6)c5)c5ccccc5-c5ccccc54)c3)c2)cc1 [Compound B-1, reference compound]	> 50 mg/mL
c1ccc(-c2cc(-c3ccccc3)cc(-c3cccc(-c4cccc(C5(c6cccc(-c7cccc(-c8cc(-c9ccccc9)cc(-c9ccccc9)c8)c7)c6)c6ccccc6-c6c(-c7cccc(-c8ccccc8)c7)cccc65)c4)c3)c2)cc1 [Compound M-0162]	> 50 mg/mL
c1ccc(-c2cccc(-c3cc(-c4cccc(-c5ccccc5)c4)cc(C4(c5cc(-c6cccc(-c7ccccc7)c6)cc(-c6cccc(-c7ccccc7)c6)c5)c5ccccc5-c5ccc(-c6ccccc6)cc54)c3)c2)cc1 [Compound B-3, reference compound]	< 50 mg/mL
c1ccc(-c2cc(-c3ccccc3)cc(-c3cccc(-c4cccc(C5(c6cccc(-c7cccc(-c8cc(-c9ccccc9)cc(-c9ccccc9)c8)c7)c6)c6ccccc6-c6ccccc65)c4)c3)c2)cc1 [Compound B-2, reference compound]	< 1 mg/mL
Cc1cc(C)c(-c2cccc3c2-c2ccccc2C3(c2cc(-c3cc(-c4ccc(C(C)(C)C)cc4)cc(-c4ccc(C(C)(C)C)cc4)c3)cc(-c3cc(-c4ccc(C(C)(C)C)cc4)cc(-c4ccc(C(C)(C)C)cc4)c3)c2)c2cc(-c3cc(-c4ccc(C(C)(C)C)cc4)cc(-c4ccc(C(C)(C)C)cc4)c3)cc(-c3cc(-c4ccc(C(C)(C)C)cc4)cc(-c4ccc(C(C)(C)C)cc4)c3)c2)c(C)c1 [Compound M-0086]	> 50 mg/mL

###

- PROCEDURE_TEXT: Solubility in organic solvents via HPTLC (after 24 hours and 7 days)
- Assay type: physicochemical
- PARTICULARS: toluene, 24 hours, room temperature

COMPOUND	Solubility after 24 hours, Toluene
c1ccc(-c2cccc(-c3cc(-c4cccc(-c5ccccc5)c4)cc(C4(c5cc(-c6cccc(-c7ccccc7)c6)cc(-c6cccc(-c7ccccc7)c6)c5)c5ccccc5-c5c(-c6ccccc6)cccc54)c3)c2)cc1 [Compound M-0005]	>50 mg/mL
c1ccc(-c2cccc(-c3cc(-c4cccc(-c5ccccc5)c4)cc(C4(c5cc(-c6cccc(-c7ccccc7)c6)cc(-c6cccc(-c7ccccc7)c6)c5)c5ccccc5-c5c(-c6ccccc6-c6ccccc6)cccc54)c3)c2)cc1 [Compound M-0043]	<50 mg/mL

###

solubility at 24 h overview
- PROCEDURE_TEXT: Solubility in organic solvents via HPTLC (after 24 hours and 7 days)
- Type: physicochemical
- PARTICULARS: 25 °C, organic solvent or mixture, thermodynamic from solid; cyclohexylbenzene, 24 hours, room temperature; read-out: Solubility after 24 hours, Cyclohexylbenzene
- Protocol: One way of processing the materials of the invention is from solution. In addition, it is a feature of materials of the invention that their […] stability is elevated, as apparent from the long-term solubility data in Table 1. Method of Determining Solubility Via HPTLC […] HPTLC measurement: The HPTLC plate is scanned by a TLC scanner, peaks are integrated and a calibration function is determined.

COMPOUND	solubility at 24 h
c1ccc(-c2cccc(-c3cc(-c4cccc(-c5ccccc5)c4)cc(C4(c5cc(-c6cccc(-c7ccccc7)c6)cc(-c6cccc(-c7ccccc7)c6)c5)c5ccccc5-c5ccc(-c6ccccc6)cc54)c3)c2)cc1 [Compound B-3, reference compound]	> 50 mg/mL
c1ccc(-c2cc(-c3ccccc3)cc(-c3cccc(-c4cccc(C5(c6cccc(-c7cccc(-c8cc(-c9ccccc9)cc(-c9ccccc9)c8)c7)c6)c6ccccc6-c6ccccc65)c4)c3)c2)cc1 [Compound B-2, reference compound]	> 50 mg/mL

###

- PROCEDURE_TEXT: Solubility in organic solvents via HPTLC (after 24 hours and 7 days)
- Format: physicochemical
- PARTICULARS: tetralin, 7 days storage at room temperature

SMILES_NOTATION	Solubility after 7 days, Tetralin
c1ccc(-c2cccc(-c3cc(-c4cccc(-c5ccccc5)c4)cc(C4(c5cc(-c6cccc(-c7ccccc7)c6)cc(-c6cccc(-c7ccccc7)c6)c5)c5ccccc5-c5c(-c6ccccc6-c6ccccc6)cccc54)c3)c2)cc1	>50 mg/mL
c1ccc(-c2cc(-c3ccccc3)cc(-c3cccc(-c4cccc(C5(c6cccc(-c7cccc(-c8cc(-c9ccccc9)cc(-c9ccccc9)c8)c7)c6)c6ccccc6-c6c(-c7ccccc7)cccc65)c4)c3)c2)cc1	>50 mg/mL
c1ccc(-c2cc(-c3ccccc3)cc(-c3cccc(-c4cccc(C5(c6cccc(-c7cccc(-c8cc(-c9ccccc9)cc(-c9ccccc9)c8)c7)c6)c6cc7c(cc6-c6c5ccc5c6-c6ccccc6C56c5ccccc5-c5ccccc56)OCO7)c4)c3)c2)cc1	<25 mg/mL
c1ccc(-c2cccc(-c3cc(-c4cccc(-c5ccccc5)c4)cc(C4(c5cc(-c6cccc(-c7ccccc7)c6)cc(-c6cccc(-c7ccccc7)c6)c5)c5ccccc5-c5c(-c6ccccc6)cccc54)c3)c2)cc1	<50 mg/mL
Cc1ccc2c(c1)-c1c(-c3cccc(-c4ccccc4)c3)cccc1C2(c1cccc(-c2cccc3c2-c2ccccc2C3(C)C)c1)c1cccc(-c2cccc3c2-c2ccccc2C3(C)C)c1	<40 mg/mL

###

Solubility after 24 hours, Tetralin overview
- PROCEDURE_TEXT: Solubility in organic solvents via HPTLC (after 24 hours and 7 days)
- Type: physicochemical
- PARTICULARS: tetralin, 24 hours, room temperature
ATTRIBUTE_MEASURED: Solubility after 24 hours, Tetralin

MOLECULE	ATTRIBUTE_MEASURED	RESULT
c1ccc(-c2cc(-c3ccccc3)cc(-c3cccc(-c4cccc(C5(c6cccc(-c7cccc(-c8cc(-c9ccccc9)cc(-c9ccccc9)c8)c7)c6)c6cc7c(cc6-c6c5ccc5c6-c6ccccc6C56c5ccccc5-c5ccccc56)OCO7)c4)c3)c2)cc1 [Compound M-0226]	Solubility after 24 hours, Tetralin	<30 mg/mL
Cc1ccc2c(c1)-c1c(-c3cccc(-c4ccccc4)c3)cccc1C2(c1cccc(-c2cccc3c2-c2ccccc2C3(C)C)c1)c1cccc(-c2cccc3c2-c2ccccc2C3(C)C)c1 [Compound M-0172]	Solubility after 24 hours, Tetralin	<40 mg/mL

###

- PROCEDURE_TEXT: Solubility in organic solvents via HPTLC (after 24 hours and 7 days)
- Assay type: physicochemical
- PARTICULARS: organic solvent or mixture, thermodynamic from solid; toluene, 7 days storage at room temperature; read-out: Solubility after 7 days, Toluene

MOLECULE	solubility at 7 days
c1ccc(-c2cccc(-c3cc(-c4cccc(-c5ccccc5)c4)cc(C4(c5cc(-c6cccc(-c7ccccc7)c6)cc(-c6cccc(-c7ccccc7)c6)c5)c5ccccc5-c5ccccc54)c3)c2)cc1 [Compound B-1, reference compound]	> 50 mg/mL
c1ccc(-c2cc(-c3ccccc3)cc(-c3cccc(-c4cccc(C5(c6cccc(-c7cccc(-c8cc(-c9ccccc9)cc(-c9ccccc9)c8)c7)c6)c6ccccc6-c6c(-c7cccc(-c8ccccc8)c7)cccc65)c4)c3)c2)cc1	> 50 mg/mL
Cc1cc(C)c(-c2cccc3c2-c2ccccc2C3(c2cc(-c3cc(-c4ccc(C(C)(C)C)cc4)cc(-c4ccc(C(C)(C)C)cc4)c3)cc(-c3cc(-c4ccc(C(C)(C)C)cc4)cc(-c4ccc(C(C)(C)C)cc4)c3)c2)c2cc(-c3cc(-c4ccc(C(C)(C)C)cc4)cc(-c4ccc(C(C)(C)C)cc4)c3)cc(-c3cc(-c4ccc(C(C)(C)C)cc4)cc(-c4ccc(C(C)(C)C)cc4)c3)c2)c(C)c1	> 50 mg/mL
c1ccc(-c2cc(-c3ccccc3)cc(-c3cccc(-c4cccc(C5(c6cccc(-c7cccc(-c8cc(-c9ccccc9)cc(-c9ccccc9)c8)c7)c6)c6ccccc6-c6ccccc65)c4)c3)c2)cc1 [Compound B-2, reference compound]	< 1 mg/mL
c1ccc(-c2cccc(-c3cc(-c4cccc(-c5ccccc5)c4)cc(C4(c5cc(-c6cccc(-c7ccccc7)c6)cc(-c6cccc(-c7ccccc7)c6)c5)c5ccccc5-c5ccc(-c6ccccc6)cc54)c3)c2)cc1 [Compound B-3, reference compound]	> 50 mg/mL
